Listing of recorded TGI by entry.
# Test system: NCI-H460 lung
# Test description: NCI tumour cell line growth inhibition, 48 h

Examples with answers:
compound="Nc1ccccc1NC(=O)c1ccc(CCCC(=O)Nc2ccc(C3CC3N)cc2)cc1 (stereo not given)" result="> 100 µM"
compound=O=C1C=CC2=[N+]([O-])C(c3ccccc3)(c3ccccc3)C(=Nc3ccccc3)C2=C1 result="34.4 µM"
compound=C[C@@H](CN1CC(=O)NC(=O)C1)N1CC(=O)NC(=O)C1 result="553 µM"
compound=CC(C)(C)OC(=O)N(O)CCCn1cnc2c(N)ncnc21 result="> 100 µM"
compound=CCN1C2=NCCN2S(=O)(=O)c2ccccc21 result="> 100 µM"

# context switch: different compound, same TGI
Which TGI is listed for `S=P1(N2CCCCC2)Oc2ccc3ccccc3c2-c2c(ccc3ccccc23)O1` ?
> 91.6 µM

###

# Test system: RPMI-8226 leukemia
# Test description: NCI tumour cell line growth inhibition, 48 h
Listing of recorded TGI by entry.

Examples with answers:
molecule=COC(=O)CCC(=O)Nc1cc(Cl)ccc1Cl result="> 100 µM"
molecule=COc1cc(/C=C/c2cc(/C=C/c3ccc(O)c(OC)c3)nc(N)n2)ccc1O result="4.18 µM"
molecule=Cn1c(-c2cccs2)cc(-c2cccs2)c1-c1ccco1 result="> 100 µM"
molecule=Cc1[nH]c2ccccc2c1-c1cc(-c2cc(-c3c(C)[nH]c4ccccc34)nc(N)n2)nc(N)n1 result="> 100 µM"
molecule="O/N=C1/C(=C/c2ccc(Oc3ccccc3)cc2)CCCC1C(NO)c1ccc(Oc2ccccc2)cc1 (stereo not drawn)" result="76.1 µM"
molecule="CN(C)CC1COC2Cc3ccccc3C1O2 (stereo not drawn)" result="> 100 µM"
molecule=O=C(O)CCC/C=C\C[C@H]1C=CC(=O)/C1=C/C[C@@H](O)CCc1cccc(C(F)(F)F)c1 result="12.2 µM"
molecule=COc1cc(C(=O)O[C@@H]2[C@@H](OC(=O)c3cc(OC)c(OC)c(OC)c3)[C@@H](OC)O[C@@H]3CO[C@@H](c4ccccc4)O[C@@H]23)cc(OC)c1OC result="> 100 µM"
molecule="CN(C)/N=C(/c1nc2ccc([N+](=O)[O-])cc2[nH]c1=O)C(O)c1ccco1 (stereo not drawn)" result="> 100 µM"
molecule=O=C(Nc1ccccc1O)c1ccc(CNc2ccnc(C(F)(F)F)c2)cc1 result="5.09 µM"

Which TGI is listed for `CCN(CC)CCCn1c(=O)c2ccccc2n2c3c(=O)n(C)c(=O)n(C)c3nc12` ?
49.7 µM

Which TGI is listed for O=C(O)/C(Cl)=C(\Cl)C(=O)NC1C2CC3CC(C2)CC1C3 (stereo not drawn) ?
> 100 µM

Which TGI is listed for `COc1ccc(Cc2cc3c(cc2OCC(=O)O)OCO3)cc1` ?
> 100 µM

Which TGI is listed for `CCOC(=O)C(C(=O)c1ccccc1C(=O)OC)=P(c1ccccc1)(c1ccccc1)c1ccccc1` ?
> 10 µM

Which TGI is listed for COc1cc2c(cc1OC)C(OC)N(C)c1c-2ccc2cc3c(cc12)OCO3 (stereo not drawn) ?
13.4 µM

Which TGI is listed for CN1CCCCC(C#N)(c2ccccc2)CC1 (stereo not drawn) ?
> 100 µM

Which TGI is listed for `Cc1cc(-c2nc3ccccc3s2)ccc1N` ?
> 100 µM

Which TGI is listed for `O=C1CC(=O)NC(=NN2C(=O)/C(=C/c3ccccc3)N=C2c2ccccc2)N1` ?
> 100 µM

Which TGI is listed for `COc1ccc2c(c1)/C(=C\c1c(C)nc3sc(C)cn13)C(=O)N2` ?
> 64.8 µM

###

# Test system: HCT-116 colon
# Test description: NCI tumour cell line growth inhibition, 48 h
Listing of recorded TGI by entry.

Examples with answers:
molecule=COc1cc(Nc2ncc(F)c(Nc3ccc4c(n3)NC(=O)C(C)(C)O4)n2)cc(OC)c1OC tested_system="HCT-116 colon" result="> 100 µM"
molecule=Cc1nc([C@H]2CC[C@H]3[C@@H]4CCC5=CC(=O)CC[C@]5(C)[C@H]4CC[C@]23C)cs1 tested_system="HCT-116 colon" result="> 100 µM"
molecule="CC(C)C1CC2C(=O)N(c3ccccc3)C(=O)C2c2[nH]c3ccccc3c21 (stereo unspecified)" tested_system="HCT-116 colon" result="14.8 µM"
molecule=Cc1ccc2c(n1)C(=O)C=CC2=O tested_system="HCT-116 colon" result="4.12 µM"
molecule=Cc1ccccc1C(=O)Oc1ccc(O)cc1 tested_system="HCT-116 colon" result="> 100 µM"
molecule="c1ccc(C2=NOC3(c4ccccc4)SC4CCCCC4CN23)cc1 (stereo unspecified)" tested_system="HCT-116 colon" result="50.4 µM"

Which TGI is listed for `CCN(CC)C(=S)SS(=O)(=O)c1ccc(Cl)cc1` ?
> 100 µM

Which TGI is listed for Cc1cccc(CC(Cc2c(C)cccc2C(=O)O)C(=O)O)c1 (stereo unspecified) ?
> 100 µM

Which TGI is listed for CC(=O)C1C(=O)NC(=O)C1=O (stereo unspecified) ?
> 100 µM

Which TGI is listed for COc1cc(/C=C2/SC(c3ccccc3)N(c3ccccc3)C2=O)cc(OC)c1OC (stereo unspecified) ?
> 100 µM

Which TGI is listed for `O=C(O)Cc1ccc(Oc2nc3ccccc3nc2C(=O)O)cc1` ?
> 100 µM

###

# Test system: MDA-MB-231 breast
# Test description: NCI tumour cell line growth inhibition, 48 h
Attribute measured: TGI (µM)
Provide the reading as a plain figure in µM.

Examples with answers:
given_smiles=O=C(O)c1cc2ccccc2c(N=Nc2cc(C(F)(F)F)ccc2Cl)c1O tested_system="MDA-MB-231 breast" recorded_number=86.7
given_smiles=N#CC(C#N)=C(N)/C(C#N)=C/c1ccc2ccccc2n1 tested_system="MDA-MB-231 breast" recorded_number=72.5
given_smiles=O=C(Nc1ccccc1O)c1ccc(CNc2ccnc(C(F)(F)F)c2)cc1 tested_system="MDA-MB-231 breast" recorded_number=50.6
given_smiles=Fc1ccc(-c2ncn(C3CCNCC3)c2-c2ccnc(Oc3ccc(F)c(F)c3)n2)cc1 tested_system="MDA-MB-231 breast" recorded_number=12
given_smiles=Cc1ccc(N=N/C(=N/NC(=O)c2cc(Cl)ccc2C(=O)c2ccccc2)c2ccc(N(CCC#N)CCC#N)cc2C)cc1 tested_system="MDA-MB-231 breast" recorded_number=24.8

Lab note: need TGI for `COc1cc2c3c(n(CCCNCCCNCCCNCCCN)c(=O)c2cc1OC)-c1cc2c(cc1C3=O)OCO2` on MDA-MB-231 breast, anyone have it?
7.79

Lab note: need TGI for `O=C(/C=C1\C[C@H]2C=Nc3ccccc3C(=O)N2C1)NCCCCNC(=O)/C=C1\C[C@H]2C=Nc3ccccc3C(=O)N2C1` on MDA-MB-231 breast, anyone have it?
0.986

Lab note: need TGI for `O=C(O)CCC/C=C\C[C@H]1C=CC(=O)/C1=C/C[C@@H](O)CCc1cccc(C(F)(F)F)c1` on MDA-MB-231 breast, anyone have it?
21.9

Lab note: need TGI for `O=[N+]([O-])/C=C/c1cc2ccccc2[nH]1` on MDA-MB-231 breast, anyone have it?
36.9

Lab note: need TGI for `Cc1ccc2c(n1)C(=O)C=CC2=O` on MDA-MB-231 breast, anyone have it?
19.5

###

# Test system: HT29 colon
# Test description: NCI tumour cell line growth inhibition, 48 h
Attribute measured: TGI (µM)
Provide the reading as a plain figure in µM.

Examples with answers:
compound=CCN(CC)C(=S)SS(=O)(=O)c1ccc(Cl)cc1 recorded_number=32.1
compound="COC(=O)c1cccc(N[C@@H]2c3cc4c(cc3C(c3cc(OC)c(O)c(OC)c3)[C@H]3C(=O)OCC32)OCO4)c1 (stereo not given in full)" recorded_number=16
compound=CS(=O)(=O)CCNCc1ccc(-c2ccc3ncnc(Nc4ccc(OCc5cccc(F)c5)c(C(F)(F)F)c4)c3c2)o1 recorded_number=8.92
compound=O=C(O)CCC/C=C\C[C@H]1C=CC(=O)/C1=C/C[C@@H](O)CCc1cccc(C(F)(F)F)c1 recorded_number=6.41

# context switch: different compound, same TGI
Which TGI is listed for `CC(=O)Oc1cc2c(c3ncccc13)OC(C)(C)C2` ?
36.9

###

# Test system: ACHN renal
# Test description: NCI tumour cell line growth inhibition, 48 h
Listing of recorded TGI by entry.

Examples with answers:
compound="CN1C(c2ccccc2)CS(=O)(=O)CS1(=O)=O (stereo not given)" tested_system="ACHN renal" result="> 100 µM"
compound=COc1ccc2c(c1)/C(=C\c1c(C)nc3sc(C)cn13)C(=O)N2 tested_system="ACHN renal" result="> 100 µM"

Which TGI is listed for `Cc1nc(C(N)=S)sc1C(/C=C/c1ccc(Cl)c(Cl)c1)=N/NC(C)(C)C` ?
> 100 µM

Which TGI is listed for `O=[N+]([O-])/C=C/c1cc2ccccc2[nH]1` ?
31.1 µM

Which TGI is listed for `CCOC(=O)c1sc(N/N=C2\NC(=O)/C(=C/c3ccc([N+](=O)[O-])cc3)S2)nc1C` ?
58.3 µM

Which TGI is listed for `O=[N+]([O-])c1ccccc1NC1c2ccccc2Oc2ccccc21` ?
> 100 µM

Which TGI is listed for `Clc1ccc(C2=Nn3c(nnc3-c3cc(Cl)cc(Cl)c3Cl)SC2)cc1` ?
45.5 µM
